Data provenance is paper PMC10349087.

# kon per record follows
# Test target: SARS-CoV-2 spike receptor-binding domain, Omicron BA.1 variant (amino acids 331-529), biotinylated (SARS-CoV-2, Omicron BA.1, G339D | S371L | S373P | S375F | K417N | N440K | G446S | S477N | T478K | E484A | …, biotin (RBD expression vector co-expressed with BirA-Flag, 100 μM biotin added))
# Procedure summary: BLI
# Measurement context: both partners purified
Property: kon

• NIV-10 Fab (Fab, V domains shown) VH: EVQLVESGGGLVQPGGSLRLSCAASGFTFYSYWMTWVRQAPGKGLEWVANIKHDESESHYVDSVRGRFTISRDNAKNSVYLQMKGLRAEDTAVYYCARDGGYNILTAYYHAPSYWGQGTLVTVSS VL: QSALTQPASVSGSPGQSITISCTGTSSDVGGYNFVSWYRQYPGKAPQLMIYDVSRRPSGDSDRFSGSKSGNTASLTISGLQAEDEAEYHCSSYTGRSPYVVFGGGTKVTVL = 129000 M⁻¹ s⁻¹
• NIV-8 Fab (Fab, V domains shown) VH: EVQLVESGGGVVQPGRSLRLSCAASGFKFSKFAMHWVRQAPGKGPEWVAVISYDGNQYHSADSVKGRFTISRDNSFNTLYLQMNSLGPEDTAVYYCARDGPDTSGYYANIYFDFWGQGTLVTVSS VL: QSVLTQPPSVSGAPGQRVTISCTGSSSNIGAGYDVHWYQQLPGRAPKLLIFDNNNRPSGVPDRFSGSKSGTSASLAITGLQTEDEAYYYCQSYDNSLILAVFGGGTKVTVL = 126000 M⁻¹ s⁻¹
• NIV-11 Fab (Fab, V domains shown) VH: QLVQSGPEVKKPGTSVKVSCKASGFTFYYSAVQWVRQARGQRLEWLGWMAVGSGKANYAQKFQERLTLTRDMSTSTAYMELSSLRSEDTAVYYCAAPNCTGGSCYDGFNLWGQGTVVTVSS VL: EIVLTQSPGTLSLSPGDRAILSCRASQTVNSNYLAWYQQKPGQAPRLLIYGTSSRATGIPDRFSGSGSGTDFTLTISRLEPEDFAVYYCQQYGSSPWLFGQGTKVEIK = 366000 M⁻¹ s⁻¹
• NIV-13 Fab (Fab, V domains shown) VH: EVQLLESGGGLVQPGGSLRLSCAASGFTFSRYALSWVRQAPGKGLEWVSAISGAAITTYYADSVKGRFTISRDDSRNTLFMQMDSLRAEDTAVYYCAKGDYYDSSGYLAEYFPHWGQGTLVTVSS VL: SYELTQPPSVSVSPGQTARITCFADALPKQHAYWYQQKAGQAPVLVIFKDTERPSGIPKRFSGSRSGATVTLTISGVQAEDEADYYCQSTDISGVLFGGGTKLTVL = 309000 M⁻¹ s⁻¹
